Entries and their viability, T/C
- Test system: 922993-354-T-J3-PDC complex spheroids, viability
- procedure_details: Anticancer human tumor 922993-354-T-J3-PDC patient-derived endometrial carcinoma cell line growth inhibition [GQUAD]
- conditions_used: second compound 3.16 µM; first compound 1 µM; hits give low values

molecule	viability, T/C
CCCS(=O)(=O)Nc1ccc(F)c(C(=O)c2c[nH]c3ncc(-c4ccc(Cl)cc4)cc23)c1F + Cc1cnc(CNC(=O)c2c(=O)c3ccc(N4CCCN(C)CC4)nc3n3c2sc2ccccc23)cn1	42%

Next molecule, viability, T/C to be filled in.
Lab note: measured viability, T/C of CC(C)n1c(=O)n(C)c2cnc3cc(F)c(-c4ccc(OCCCN5CCCCC5)nc4)cc3c21 + CN(C)c1ccc(Nc2c3ccc(NC(=O)CCN4CCCC4)cc3nc3cc(NC(=O)CCN4CCCC4)ccc23)cc1 was 76%

----------
Entries and their viability, T/C
- Test system: 922993-354-T-J3-PDC complex spheroids, viability
- procedure_details: Anticancer human tumor 922993-354-T-J3-PDC cell line growth inhibition [GQUAD]
- conditions_used: second compound 0.0316 µM; first compound 0.0316 µM; hits give low values
- Source text: DNA G-quadruplex Stabilizer Agents in Combinations in Complex Spheroids A high-throughput screen of multi-cell type tumor spheroids was designed to identify active combinations of DNA G-quadruplex stabilizer agents and targeted small molecules. […] Compounds. […] If the clinical Cmax for an agent had not been determined, the highest concentration tested was 10 microM. […]
Provide the reading as a plain figure in %.

molecule	unit_spec	viability, T/C
Cc1[nH]c2ccccc2c1CCNCc1ccc(/C=C/C(=O)NO)cc1 + Cc1cnc(CNC(=O)c2c(=O)c3ccc(N4CCCN(C)CC4)nc3n3c2sc2ccccc23)cn1	%	72.6
CCc1c2c(nc3ccc(O)cc13)-c1cc3c(c(=O)n1C2)COC(=O)[C@]3(O)CC + Cc1[nH]c2ccc(F)cc2c1-c1nc2c3cccnc3c3ncccc3c2[nH]1	%	22.1
C#Cc1c(F)ccc2cc(O)cc(-c3ncc4c(N5CC6CCC(C5)N6)nc(OCC56CCCN5CC(F)C6)nc4c3F)c12 (stereo not given) + Cc1cnc(CNC(=O)c2c(=O)c3ccc(N4CCCN(C)CC4)nc3n3c2sc2ccccc23)cn1	%	75.3

Lab note: measured viability, T/C of C=CC(=O)N1CCN(c2nc(=O)n(-c3c(C)ccnc3C(C)C)c3nc(-c4c(O)cccc4F)c(F)cc23)C(C)C1 (stereo not given) + Cc1cnc(CNC(=O)c2c(=O)c3ccc(N4CCCN(C)CC4)nc3n3c2sc2ccccc23)cn1 was 109

Lab note: measured viability, T/C of C=CCn1c(=O)c2cnc(Nc3ccc(N4CCN(C)CC4)cc3)nc2n1-c1cccc(C(C)(C)O)n1 + CN(C)c1ccc(Nc2c3ccc(NC(=O)CCN4CCCC4)cc3nc3cc(NC(=O)CCN4CCCC4)ccc23)cc1 was 103

----------
- Test system: 922993-354-T-J3-PDC complex spheroids, viability
- procedure_details: Anticancer human tumor 922993-354-T-J3-PDC cell line growth inhibition [GQUAD];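 note: spheroids exposed to compounds for seven days; 100% = DMSO vehicle control viability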
- conditions_used: second compound 1 µM; first compound 0.316 µM; hits give low values
Binarize viability, T/C at 50%; below is y, at or above is n.

compound	tested_target	category_label
CC1COCCN1c1cc(C2(S(C)(=N)=O)CC2)nc(-c2ccnc3[nH]ccc23)n1 (stereo unspecified) + Cc1[nH]c2ccc(F)cc2c1-c1nc2c3cccnc3c3ncccc3c2[nH]1	922993-354-T-J3-PDC complex spheroids, viability	n
COc1cccc2c1C(=O)c1c(O)c3c(c(O)c1C2=O)CC(O)(C(=O)CO)CC3OC1CC(N)C(O)C(C)O1 (stereo unspecified) + CN(C)c1ccc(Nc2c3ccc(NC(=O)CCN4CCCC4)cc3nc3cc(NC(=O)CCN4CCCC4)ccc23)cc1	922993-354-T-J3-PDC complex spheroids, viability	n
CC1COCCN1c1cc(-c2ccnn2C)c2ccnc(-c3ccn[nH]3)c2n1 (stereo unspecified) + Cc1cnc(CNC(=O)c2c(=O)c3ccc(N4CCCN(C)CC4)nc3n3c2sc2ccccc23)cn1	922993-354-T-J3-PDC complex spheroids, viability	y

Consider now this further compound.
Enquiry: Please state whether viability, T/C is below 50% for Nc1ccn(C2OC(CO)C(O)C2(F)F)c(=O)n1 (stereo unspecified) + Cc1[nH]c2ccc(F)cc2c1-c1nc2c3cccnc3c3ncccc3c2[nH]1
Return: y

----------
- System: 922993-354-T-J3-PDC complex spheroids, viability
- procedure_details: Anticancer human tumor 922993-354-T-J3-PDC cell line growth inhibition [GQUAD];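 note: spheroids exposed to compounds for seven days; 100% = DMSO vehicle control viability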
- conditions_used: second compound 0.316 µM; first compound 10 µM; hits give low values
- Excerpt: DNA G-quadruplex Stabilizer Agents in Combinations in Complex Spheroids A high-throughput screen of multi-cell type tumor spheroids was designed to identify active combinations of DNA G-quadruplex stabilizer agents and targeted small molecules. […] Compounds. […] If the clinical Cmax for an agent had not been determined, the highest concentration tested was 10 microM. […]
quantity_measured: viability, T/C (%)
Provide the reading as a plain figure in %.

molecule	tested_target	viability, T/C, %
CC(C)n1c(=O)n(C)c2cnc3cc(F)c(-c4ccc(OCCCN5CCCCC5)nc4)cc3c21 + CN(C)c1ccc(Nc2c3ccc(NC(=O)CCN4CCCC4)cc3nc3cc(NC(=O)CCN4CCCC4)ccc23)cc1	922993-354-T-J3-PDC complex spheroids, viability	70.9
O=c1[nH]cc(F)c(=O)[nH]1 + Cc1[nH]c2ccc(F)cc2c1-c1nc2c3cccnc3c3ncccc3c2[nH]1	922993-354-T-J3-PDC complex spheroids, viability	64.8
Nc1ccn(C2OC(CO)C(O)C2(F)F)c(=O)n1 (stereo unspecified) + Cc1cnc(CNC(=O)c2c(=O)c3ccc(N4CCCN(C)CC4)nc3n3c2sc2ccccc23)cn1	922993-354-T-J3-PDC complex spheroids, viability	27.8
C=CC(=O)N1CCN(c2nc(=O)n(-c3c(C)ccnc3C(C)C)c3nc(-c4c(O)cccc4F)c(F)cc23)C(C)C1 (stereo unspecified) + Cc1cnc(CNC(=O)c2c(=O)c3ccc(N4CCCN(C)CC4)nc3n3c2sc2ccccc23)cn1	922993-354-T-J3-PDC complex spheroids, viability	61.9
CC1COCCN1c1cc(C2(O)CC3CCC(C2)O3)c2cnn(-c3ccn[nH]3)c2n1 (stereo unspecified) + Cc1cnc(CNC(=O)c2c(=O)c3ccc(N4CCCN(C)CC4)nc3n3c2sc2ccccc23)cn1	922993-354-T-J3-PDC complex spheroids, viability	12.5

Lab note: measured viability, T/C of O=c1[nH]cc(F)c(=O)[nH]1 + CN(C)c1ccc(Nc2c3ccc(NC(=O)CCN4CCCC4)cc3nc3cc(NC(=O)CCN4CCCC4)ccc23)cc1 was 22.5

Lab note: measured viability, T/C of O=C(NO)c1cnc(N2CCN(S(=O)(=O)c3ccc4ccccc4c3)CC2)nc1 + CN(C)c1ccc(Nc2c3ccc(NC(=O)CCN4CCCC4)cc3nc3cc(NC(=O)CCN4CCCC4)ccc23)cc1 was 0.4

----------
- Tested on: 922993-354-T-J3-PDC complex spheroids, viability
- procedure_details: Anticancer human tumor 922993-354-T-J3-PDC cell line growth inhibition [GQUAD];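 note: spheroids exposed to compounds for seven days; 100% = DMSO vehicle control viability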
- conditions_used: second compound 1 µM; first compound 0.00999 µM; hits give low values
quantity_measured: viability, T/C (%)
Provide the reading as a plain figure in %.

Lab note: measured viability, T/C of CCc1c2c(nc3ccc(O)cc13)-c1cc3c(c(=O)n1C2)COC(=O)[C@]3(O)CC + Cc1cnc(CNC(=O)c2c(=O)c3ccc(N4CCCN(C)CC4)nc3n3c2sc2ccccc23)cn1 was 43.5

Lab note: measured viability, T/C of Cn1ncnc1[C@H]1c2n[nH]c(=O)c3cc(F)cc(c23)N[C@@H]1c1ccc(F)cc1 + Cc1[nH]c2ccc(F)cc2c1-c1nc2c3cccnc3c3ncccc3c2[nH]1 was 100

Lab note: measured viability, T/C of CC[C@@]1(O)C(=O)OCc2c1cc1n(c2=O)Cc2cc3c(CN(C)C)c(O)ccc3nc2-1 + CN(C)c1ccc(Nc2c3ccc(NC(=O)CCN4CCCC4)cc3nc3cc(NC(=O)CCN4CCCC4)ccc23)cc1 was 97.7

----------
- System: 922993-354-T-J3-PDC complex spheroids, viability
- procedure_details: Anticancer human tumor 922993-354-T-J3-PDC cell line growth inhibition [GQUAD];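 note: spheroids exposed to compounds for seven days; 100% = DMSO vehicle control viability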
- conditions_used: second compound 0.1 µM; first compound 1 µM; hits give low values
Binarize viability, T/C at 80%; below is Criterion met, at or above is Criterion not met.

Illustrative cases are given below, each with its answer.
compound	tested_target	category_label
CC(=O)O[C@H]1C(=O)[C@@]2(C)[C@H]([C@H](OC(=O)c3ccccc3)[C@]3(O)C[C@H](OC(=O)[C@H](O)[C@@H](NC(=O)c4ccccc4)c4ccccc4)C(C)=C1C3(C)C)[C@]1(OC(C)=O)CO[C@@H]1C[C@@H]2O + Cc1cnc(CNC(=O)c2c(=O)c3ccc(N4CCCN(C)CC4)nc3n3c2sc2ccccc23)cn1	922993-354-T-J3-PDC complex spheroids, viability	Criterion met
COc1ncnc(C2CC2)c1-c1ncc2cnn(Cc3ccc(-c4nc(C(F)(F)F)cn4C(C)C)cc3)c2n1 + Cc1cnc(CNC(=O)c2c(=O)c3ccc(N4CCCN(C)CC4)nc3n3c2sc2ccccc23)cn1	922993-354-T-J3-PDC complex spheroids, viability	Criterion met
CC(=O)O[C@H]1C(=O)[C@@]2(C)[C@H]([C@H](OC(=O)c3ccccc3)[C@]3(O)C[C@H](OC(=O)[C@H](O)[C@@H](NC(=O)c4ccccc4)c4ccccc4)C(C)=C1C3(C)C)[C@]1(OC(C)=O)CO[C@@H]1C[C@@H]2O + Cc1[nH]c2ccc(F)cc2c1-c1nc2c3cccnc3c3ncccc3c2[nH]1	922993-354-T-J3-PDC complex spheroids, viability	Criterion not met
CC(C)(O)C1CCC(Nc2ccc3ncc(-c4cccc(C(F)(F)F)c4)n3n2)CC1 (configuration not stated) + Cc1[nH]c2ccc(F)cc2c1-c1nc2c3cccnc3c3ncccc3c2[nH]1	922993-354-T-J3-PDC complex spheroids, viability	Criterion met
C=CCn1c(=O)c2cnc(Nc3ccc(N4CCN(C)CC4)cc3)nc2n1-c1cccc(C(C)(C)O)n1 + Cc1cnc(CNC(=O)c2c(=O)c3ccc(N4CCCN(C)CC4)nc3n3c2sc2ccccc23)cn1	922993-354-T-J3-PDC complex spheroids, viability	Criterion met

Enquiry: Please state whether viability, T/C is below 80% for CC(C)(O)C1CCC(Nc2ccc3ncc(-c4cccc(C(F)(F)F)c4)n3n2)CC1 (configuration not stated) + CN(C)c1ccc(Nc2c3ccc(NC(=O)CCN4CCCC4)cc3nc3cc(NC(=O)CCN4CCCC4)ccc23)cc1
Return: Criterion not met

Enquiry: Please state whether viability, T/C is below 80% for CC(C)n1c(=O)n(C)c2cnc3cc(F)c(-c4ccc(OCCCN5CCCCC5)nc4)cc3c21 + Cc1cnc(CNC(=O)c2c(=O)c3ccc(N4CCCN(C)CC4)nc3n3c2sc2ccccc23)cn1
Return: Criterion met

Enquiry: Please state whether viability, T/C is below 80% for O=c1[nH]cc(F)c(=O)[nH]1 + Cc1[nH]c2ccc(F)cc2c1-c1nc2c3cccnc3c3ncccc3c2[nH]1
Return: Criterion not met

Enquiry: Please state whether viability, T/C is below 80% for Nc1ccn(C2OC(CO)C(O)C2(F)F)c(=O)n1 (configuration not stated) + Cc1cnc(CNC(=O)c2c(=O)c3ccc(N4CCCN(C)CC4)nc3n3c2sc2ccccc23)cn1
Return: Criterion met

Enquiry: Please state whether viability, T/C is below 80% for C=CC(=O)N1CCN(c2nc(=O)n(-c3c(C)ccnc3C(C)C)c3nc(-c4c(O)cccc4F)c(F)cc23)C(C)C1 (configuration not stated) + Cc1cnc(CNC(=O)c2c(=O)c3ccc(N4CCCN(C)CC4)nc3n3c2sc2ccccc23)cn1
Return: Criterion met

Enquiry: Please state whether viability, T/C is below 80% for O=C(c1cc(Cc2n[nH]c(=O)c3ccccc23)ccc1F)N1CCN(C(=O)C2CC2)CC1 + Cc1[nH]c2ccc(F)cc2c1-c1nc2c3cccnc3c3ncccc3c2[nH]1
Return: Criterion not met

Enquiry: Please state whether viability, T/C is below 80% for C=CCn1c(=O)c2cnc(Nc3ccc(N4CCN(C)CC4)cc3)nc2n1-c1cccc(C(C)(C)O)n1 + Cc1[nH]c2ccc(F)cc2c1-c1nc2c3cccnc3c3ncccc3c2[nH]1
Return: Criterion not met
